Cited source for all entries: the nanobody polyreactivity screen of Harvey et al. (2022)

assay: yeast display, Sf9 membrane polyspecificity reagent, FACS + sequencing; frameworks hold sequencing errors
Measurement Kind: polyreactivity (PSR sort gate)

Answered cases to consult:
QVQLVESGGGLVQAGGSLRLSCAASGITFIGYVMGWYRQAPGKERELVAAISRSGASTYYADSVKGRFTISRDNAKNTVYLQMNSLKPEDTAVYYSATVRYHPAYYYWGQGTQVTVSS = high polyreactivity
QVQLVESGGGVDQAGGSLRLSCAACGSTIPYYAMGWYRQAPGKERELVAAISASTGSTNYADSVKGRFTISRDNAKNTVYLQMNSLKPEDTAVYYCAKKRSKIKRFGYWGHGTQVTVSS = high polyreactivity
QVQLVQSGGGLVQAGGSLRLSCADSGGTFRVYAMGSYRQAPGKERQLVASISWSSGITYYADSVKGRFTISRDNAKNTVYLQMNSLKPEDTAVYYCAAEGHVTYGAPGRLYRMGYWGQGTQVTVSS = low polyreactivity
QVQLVESVGGLVQAGGILRLSSAASGSTFERYAMGWDRQAPGKEREFVATINWGGGSTYYADSVKGRFTISRDNAKKTVYLQMNSLKPEDTAVDYCNAYVLYQSWRFSYDYWGQGTHVTVSS = low polyreactivity
QVQLVESGGGLVQAGGSLRLSCAASGRTFRANAMGWYRQAPGKERELVAAIRTGTRTYYADSVKGRFTISRDNAKNTVYLQMNSLKPEDTAVYYCNRRHYYPYDNYDAMYYWGQGTQVTVSS = high polyreactivity
QVQLVESVVGLVQAGGSLRLICAASGIIISRYAMECYRQAPGKERELVAAITRSGGDTYYADSVKGRFTISRDNAKNTVYLQMNSLKPEDTAVYYCAASSSWYEDHDYWGQGTQVTVSS = low polyreactivity
QVQLVESGGGLVQAGGSLRLSCAASGSTFYKYAMGWYRQAPGKERELVARISRGGGSTYYADSVKGRFTISRDNAKNTVYLQMNSLKPEDTAVYYCAAGVRGQNDGYYWGQGTEVTVSS = high polyreactivity
QVQLVESGGGLVQAGGSLRLSGAASGSILWSYALGCYIQAPGKERELVAAIRSGGSTYYADSVKGRFTISRDNAKNTVYFQMNSLKPEDTAVLYCNATYAPLFEYDYWGQGTQVTVSS = low polyreactivity
QVQLVESGGAFVQAGGTLRLICAASGRIFLYYAMGWYRHAPGKERELFAAIRISGGSTYYADSVKGRFTISRDNAKNTVYLQMNSLNAVDPAVYYCNADHKTIYPKYRGRFYYWGQGTQVTVTS = high polyreactivity
QVQLVESGGGLVQAGGSLRLSCAASGNIFGYYAMGWYRQAPGKERELVAAITTTGGSTYYADSVKGRFTISRDNAKNTVYLQMNSLKPEDTAVYYCAAETGYWYYYWGQGTLVTVSS = high polyreactivity

Incoming: In one line, give reported polyreactivity (PSR sort gate) of the entry QVQLQGSGGGLAQAGDSLRLSCAASGTIFSEYNNGLVSPGAGQRTRTCCRYWCWGNTYYADSAKGRFTTSRDNAKNTVYLQKNSLKPEDTAVYYCAFNRPYPSRHIYRGQGTQVTVSS .
Outgoing: high polyreactivity

Incoming: Give the reported value of polyreactivity (PSR sort gate) for this record: QVQLVESGGGLVQAGGSLRLSCAASGIIFFYNAMGWYRQAPGKERELVAAITIGGITYADSVKGRFTISRDNAKNTVYLQMNSLNPEDTAVYYCNKRTDSDSGHWEHDYWGQGTQVTVSS
Outgoing: low polyreactivity

Incoming: State its polyreactivity (PSR sort gate) for this sequence: QVQLQVSGGDLVQAGGSLRLSCAASGTIYGLTAMGWYRLAPGKEREFVAAITDGGNTNYADSVKGRFTISRDNAINTVYLQMISLKPEDTAVYYCAVLFSDDAYYAYWGQGTQVTVSS
Outgoing: low polyreactivity

Incoming: Report measured polyreactivity (PSR sort gate); entry is QVQLVESGGGLVQAGGSLRLTCAASGSIFVNNAMGWYRQAPGKEMELVAAIRRSGGNTYYADSVKGRFTISRDNAKNTVYLQMNSLIPEDTAVYYCNVVRRADSIRAKSRDYWGQGTQVTVSS
Outgoing: high polyreactivity

Incoming: // fetch polyreactivity (PSR sort gate) given entry QVQLVESGGGLVQAGGSLRLSCAASGFIIDDNTMGWYRQAPGKEMELVAAISYSAGSTYYADSVKGRFTISRDNAKNTVYLQMNSVKPEDTAVYYCAAQHYWVTSYLSSSDYWGQGTQVTVSS
Outgoing: low polyreactivity

Incoming: For the sequence QVQLVESGGGLVQAGGSLRLSCAASGSIFYRNVMGWYRQAPGKERELVAAISWSGGSTYYADSVKGRFTISRDKSKNTVYLQMNSLKPEDTAVYYCAADIPKTCYPYAFEYWGQGTQVTVSS , give its measured polyreactivity (PSR sort gate) value.
Outgoing: low polyreactivity

Incoming: Look up and report measured polyreactivity (PSR sort gate) for this entry: QVQLVESGGGIVQAGGSLRLSCASSGFTFNLYAMGWYRHAPGNERELVAAINWSGGTYYADSVKGRFTISRDNAKNNVYLQMKILKPEDTAVYYCNARYVYHSSFAGFDYWGQGTQVTVSS
Outgoing: low polyreactivity

Incoming: Given QVQLVESGGGLVQAGGSLRLSCAASGRTLSRYTMGWYIQAPGKERELVAGITRSGGSTYYPDSEKGRFTISRDNAKNTVYLQMNSLKPEDTAVYYCAARWHFLTSSRFDYWGQGTQVTVSS , respond with its polyreactivity (PSR sort gate).
Outgoing: high polyreactivity
